Biological target: purified DDK (Homo sapiens)
Construct: His6-Smt3 (SUMO) (N, cleaved yes); made in house; host or cells: E. coli BL21-RIPL (pKT37, pETDuet-1 vector)
Sequence (O00311 whole entry): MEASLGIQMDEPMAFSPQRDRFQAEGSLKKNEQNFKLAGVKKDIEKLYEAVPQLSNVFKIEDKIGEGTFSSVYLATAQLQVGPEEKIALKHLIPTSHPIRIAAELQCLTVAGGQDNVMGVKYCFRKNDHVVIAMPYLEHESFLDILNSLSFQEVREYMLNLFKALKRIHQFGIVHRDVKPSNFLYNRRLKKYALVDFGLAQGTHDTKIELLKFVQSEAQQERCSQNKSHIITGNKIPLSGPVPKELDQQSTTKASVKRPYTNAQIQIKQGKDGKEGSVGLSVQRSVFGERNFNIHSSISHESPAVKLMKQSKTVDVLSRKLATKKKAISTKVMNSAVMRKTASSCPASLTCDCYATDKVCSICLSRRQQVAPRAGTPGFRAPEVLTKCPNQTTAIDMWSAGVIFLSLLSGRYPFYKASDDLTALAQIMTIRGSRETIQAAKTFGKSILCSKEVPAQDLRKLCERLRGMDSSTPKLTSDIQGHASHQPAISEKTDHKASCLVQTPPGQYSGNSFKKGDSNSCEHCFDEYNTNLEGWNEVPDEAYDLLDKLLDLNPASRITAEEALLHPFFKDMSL
Sequence (Q9UBU7 341-674 partner limits assumed): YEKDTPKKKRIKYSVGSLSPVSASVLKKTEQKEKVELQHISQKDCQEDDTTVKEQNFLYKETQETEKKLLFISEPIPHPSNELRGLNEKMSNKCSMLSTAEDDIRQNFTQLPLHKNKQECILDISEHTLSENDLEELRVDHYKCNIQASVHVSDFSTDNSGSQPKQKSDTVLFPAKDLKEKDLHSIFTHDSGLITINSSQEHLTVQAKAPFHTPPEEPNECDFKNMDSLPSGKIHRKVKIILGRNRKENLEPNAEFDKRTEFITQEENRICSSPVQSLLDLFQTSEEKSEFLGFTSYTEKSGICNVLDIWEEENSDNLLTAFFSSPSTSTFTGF
Assay: DDK thermal stability shift assay (TSA)
Type: binding
Details: library screen, 20 µM compound
Counter-ions that a name gives are not always drawn.
Entries annotated with measured ΔTm

Molecule	ΔTm (°C)
Cl.O=S(=O)(c1cccc2c(Cl)cccc12)N1CCCNCC1 [ML 9 hydrochloride]	0.6
CCCOc1ccc(/C=C2/SC(=O)NC2=O)cc1	0.2
COc1cc2ncnc(Nc3cccc(O)c3)c2cc1OC [WHI-P180, Hydrochloride]	0
Nc1ccc(-c2cccc3c(=O)cc(N4CCOCC4)oc23)cc1	0.6
O=C1Nc2ccc(I)cc2/C1=C1/Nc2ccccc2/C1=N\O	0.5
Cc1ncc2ccccc2c1C#N	0
O=C(O)/C=C/c1cc(Br)c(Br)c(Br)c1Br	32
Nc1[nH]nc2nnc(-c3c(-c4ccccc4)nn4ccccc34)cc12	0
Nc1ccc2ncnc(NCCc3ccc(Oc4ccccc4)cc3)c2c1	0.3
Cl.Cl.NCCNc1ncc(C(N)=O)c(Nc2cccc(C(F)(F)F)c2)n1	1.2
O=C1N=C(NCc2cccs2)SC1=Cc1ccc2ncccc2c1	2.2
COc1cc2ncnc(N3CCN(C(=O)Nc4ccc(Oc5ccccc5)cc4)CC3)c2cc1OC	0
Cl.O=S(=O)(c1cccc2c(I)cccc12)N1CCCNCC1 [ML-7, Hydrochloride]	0.3
COc1ccc2nc3c(c(C)nn3C)c(NCCOCCO)c2c1 [Ras/Rac TransformaEon Blocker, SCH 51344]	0.5
CCN(CC)CCCCN1c2ccccc2Oc2ccc(Cl)cc21.Cl [10-DEBC hydrochloride]	0.8
Cn1nc2c3c(cccc31)C(=O)c1ccccc1-2 [JNK Inhibitor, Negajve Control]	0
c1ccc(-c2cnc(Nc3ccc(OCCN4CCCC4)cc3)s2)cc1	0.3
O=C1NC(=O)c2c1c1c3ccccc3[nH]c1c1[nH]c3ccccc3c21	0.5
O=C1Nc2ccc(I)cc2C1=Cc1cc(Br)c(O)c(Br)c1	3.5
O=C(Nc1ccncc1)Nc1c(Cl)cc(Cl)cc1Cl	0
COc1cc2ncc(-c3ccccc3)nc2cc1OC	0
